# System: 786-0 renal
# TEST: NCI-60 one-dose screen, 48 h (100 = growth as untreated, 0 = no growth, -100 = all killed)
# CONDITION DESCRIPTION: 10 µM
Compounds without any hit were thinned out: in the full panel of roughly 83,000, 20% have a hit.
Mark each entry 1.0 if its growth sits below 50%, and 0.0 for all others.

In plain terms, does Cc1ccc(S(=O)(=O)Nc2cccc3[nH]c(C(F)(F)F)nc23)cc1 come in under 50% for growth?
1.0

In plain terms, does CCN1CCN(c2nc(NNC(=O)c3cccc(OC)c3)nc(N3CCN(C(c4ccccc4)c4ccccc4)CC3)n2)CC1 come in under 50% for growth?
0.0

In plain terms, does CC(C)(C)c1ccc(OCCCCCCN2CCNCC2)cc1 come in under 50% for growth?
1.0

In plain terms, does Cc1ccc(NC(=O)/C=N/O)cc1C come in under 50% for growth?
0.0

In plain terms, does Cc1nc(N)sc1Sc1nc2ccc(Cl)cc2c(=O)n1-c1ccc(Oc2ccccc2)cc1 come in under 50% for growth?
0.0

In plain terms, does O=C(Nc1cccc(Cl)c1)OCC(COC(=O)Nc1cccc(Cl)c1)(COC(=O)Nc1cccc(Cl)c1)[N+](=O)[O-] come in under 50% for growth?
1.0

In plain terms, does COc1nc2c(c(=O)[nH]1)C(c1ccc(Oc3ccnc4cc(Cl)ccc34)c(OC)c1)C=C(c1cc(OC)c(OC)c(OC)c1)N2 (configuration not stated) come in under 50% for growth?
0.0

In plain terms, does C[C@@H]1C(=O)N(C[C@H](Cc2ccccc2)NC(=O)OCc2ccccc2)[C@]1(Cc1ccccc1)C(=O)OCc1ccccc1 come in under 50% for growth?
0.0

In plain terms, does COc1ccc(-c2csc(NC(=O)CO[N+](=O)[O-])n2)cc1 come in under 50% for growth?
0.0

In plain terms, does Cc1ccc2oc(=O)cc(/C(=C3/C=CC=N3)c3ccc[nH]3)c2c1 come in under 50% for growth?
1.0

In plain terms, does Cc1ccc(-c2cc(-c3cccc(Nc4ccnc5cc(Cl)ccc45)c3)nc3nc(N)[nH]c(=O)c23)cc1 come in under 50% for growth?
0.0

In plain terms, does COCCNCC(O)Cn1c2ccc(Cl)cc2c2cc(Cl)ccc21 (configuration not stated) come in under 50% for growth?
1.0

In plain terms, does COc1ccc(NC(=O)c2sc3nc4c(cc3c2N)C(O)CCC4)cc1 (configuration not stated) come in under 50% for growth?
0.0

In plain terms, does COc1c(C)c(C)c(OC)c2c1[nH]c(=O)c1c3cccnc3cn21 come in under 50% for growth?
0.0

In plain terms, does Nc1ccc(C2=CC(c3ccc(Cl)cc3)N3C=CSC3=N2)cc1 (configuration not stated) come in under 50% for growth?
1.0

In plain terms, does COc1ccc(S(=O)(=O)Nc2cc(/C=C\c3cc(OC)c(OC)c(OC)c3)ccc2OC)cc1 come in under 50% for growth?
1.0

In plain terms, does CCOC(=O)c1ccc(NC(=O)Nc2nncs2)cc1 come in under 50% for growth?
1.0

In plain terms, does CCCCCCCCCCCCCCCCn1cc[n+](C)c1 come in under 50% for growth?
1.0

In plain terms, does COc1ccc(-c2[nH]ncc2/C=C/c2cc(C(F)(F)F)[nH]c(=O)n2)cc1 come in under 50% for growth?
0.0

In plain terms, does O=C(CSc1nnc(-c2ccc(Cl)cc2)o1)c1ccccc1 come in under 50% for growth?
0.0

In plain terms, does COc1cc(OC)cc(N2CCN(C(=O)Nc3nc4cc(F)ccc4nc3OC)CC2)c1 come in under 50% for growth?
1.0

In plain terms, does CCCCCCCCCCCC(=O)NCCCN(C)C come in under 50% for growth?
0.0

In plain terms, does CCc1ccc(-c2nnc(COc3ccc(-c4nc5ccccc5[nH]4)cc3OC)o2)cc1 come in under 50% for growth?
1.0

In plain terms, does COc1ccc(-c2nsc3c2NC(=O)CC3c2ccc(Cl)cc2)cc1 (configuration not stated) come in under 50% for growth?
0.0

In plain terms, does Nc1c(C(=O)Nc2ccccc2F)sc2nc3c(cc12)C(=O)CCC3 come in under 50% for growth?
1.0

In plain terms, does COc1ccc(C(=O)/C=C/c2cc(-c3ccc(OC)c(OC)c3)n[nH]2)cc1OC come in under 50% for growth?
1.0

In plain terms, does O=C(NNC(=O)c1ccncc1)Nc1ccc([N+](=O)[O-])cc1 come in under 50% for growth?
0.0

In plain terms, does CCCOCC(O)CNCCN (configuration not stated) come in under 50% for growth?
0.0

In plain terms, does Nc1cc2c(cc1Cl)-c1ccc(Cl)cc1C2=O come in under 50% for growth?
0.0

In plain terms, does Cc1ccc(Cl)cc1Nc1nc(C(F)(F)F)ccc1C(=O)N/N=C/c1c(Cl)cccc1Cl come in under 50% for growth?
1.0

In plain terms, does CCOC(=O)c1cc2c(n1Cc1ccccc1)-c1oncc1CC2 come in under 50% for growth?
0.0

In plain terms, does CC(=O)Oc1c(C)c(C)c2c(c1C)CCC(C)(CC(=O)OCCCCCCCCCCC[P+](c1ccccc1)(c1ccccc1)c1ccccc1)O2 (configuration not stated) come in under 50% for growth?
1.0

In plain terms, does CCOc1ccc2c(c1)CC[C@@H]1[C@@H]2CC[C@]2(C)[C@@H](O)[C@@H](O)C[C@@H]12 come in under 50% for growth?
0.0

In plain terms, does O=C(Nc1ccc(OCc2nnc(-c3ccccc3)o2)c(F)c1)Nc1ccc(Cl)c(Cl)c1 come in under 50% for growth?
0.0

In plain terms, does N=C(N)c1ccc(-c2ccc(-c3cccs3)s2)nc1 come in under 50% for growth?
0.0

In plain terms, does Cc1cc(C)c2c(Nc3ncnc4c3sc3nc(C)cc(C)c34)n[nH]c2n1 come in under 50% for growth?
0.0

In plain terms, does CCOC(=O)Nc1ccc2c(c1)C(=O)N(CC)c1ccccc1O2 come in under 50% for growth?
1.0

In plain terms, does CCCCCC(CCC)COC(=O)c1ccc(OC)cc1 (configuration not stated) come in under 50% for growth?
0.0

In plain terms, does COc1ccc(/C(CS(=O)(=O)c2ccccc2)=N\O)cc1 come in under 50% for growth?
0.0

In plain terms, does C/C(=N\NC(=O)c1sc(=S)n(C)c1N)c1cc2ccccc2o1 come in under 50% for growth?
0.0

In plain terms, does CN(C)CCCN1c2ccccc2Sc2ccc(C(F)(F)F)cc21 come in under 50% for growth?
1.0

In plain terms, does O=C(N/N=c1/ccoc2cccnc12)N1CCN(c2ncccn2)CC1 come in under 50% for growth?
1.0

----------
# System: MALME-3M melanoma
# TEST: NCI-60 one-dose screen, 48 h
# CONDITION DESCRIPTION: 10 µM
This is part of a sample that, as a whole, favours compounds with a hit. Of some 83,000 tested, about 20% had one in any assay. The source made the active and inactive calls. Rule for the calls: active = growth percent below 10; inactive = the rest.
Answer with one of the outcomes given here: yes (active), no (inactive)

What classification did C(=C\c1nc2ccccc2s1)/c1ccc(N2CCOCC2)s1 end up with in this test?
no

What classification did Cc1cc(O)c(C2=NN(c3ccc(S(N)(=O)=O)cc3)C(c3ccc(N(C)C)cc3)C2)c(C)c1Cl (stereo not given) end up with in this test?
no

What classification did CC(C)c1[nH]nc2c(NCc3ccc(-c4ccccn4)cc3)nc(SCCN)nc12 end up with in this test?
yes

What classification did COc1cccc(-c2nnc(COc3ccc(-c4nc5ccc(C)cc5[nH]4)cc3OC)o2)c1 end up with in this test?
no

What classification did Cc1ccc(-c2cc(C(=O)Nc3ccc(S(=O)(=O)N4CCCCC4)cc3)[nH]n2)c(O)c1 end up with in this test?
no

What classification did Cc1ccc(C2C=C(c3ccc(Cl)cc3)N=C3SC=CN32)c(Br)c1 (stereo not given) end up with in this test?
no

What classification did O=NN(CC(=O)N/N=C/C=C\c1ccccc1)CC(=O)N/N=C/C=C/c1ccccc1 end up with in this test?
no

What classification did CCCCC(=O)N(c1ccc(Nc2c3ccccc3nc3cc([N+](=O)[O-])ccc23)cc1)S(C)(=O)=O end up with in this test?
no

What classification did Cn1cnc([N+](=O)[O-])c1/C=C1\Oc2ccc(Cl)cc2C1=O end up with in this test?
no

What classification did COC(=O)c1cnc2c(c1)Oc1ccccc1-c1ccnn1-2 end up with in this test?
no

----------
# Test system: SNB-19 CNS
# TEST: NCI-60 one-dose screen, 48 h (100 = growth as untreated, 0 = no growth, -100 = all killed)
# CONDITION DESCRIPTION: 10 µM
About 83,000 compounds went through this panel and 20% of them were active in at least one assay; those are over-represented in the sample as a whole.
MEASURED QUANTITY: growth (%)
Numbers only here, please. The scale is %.

For the compound CCCc1c(C)nc2scc(-c3ccc(Cl)cc3)n2c1=O , give its reported growth.
105

For the compound Nc1ccccc1NC(=O)CCCCCCC(=O)Nc1ccc2c(c1)/C(=C/c1ccc[nH]1)C(=O)N2 , give its reported growth.
49.8

For the compound COc1cc(-c2nc3ccc(C)cc3[nH]2)ccc1OCc1nnc(-c2ccc(CC(C)C)cc2)o1 , give its reported growth.
94.6

For the compound CN1CCN(c2nc(-c3cccnc3)nc3sc4c(c23)CCCCCC4)CC1 , give its reported growth.
101

For the compound COc1ccc2nc(C)cc(Nc3ccc(Cl)cc3)c2c1 , give its reported growth.
104

For the compound COc1cc(-c2cc(-c3cc(OC)c(OC)c(OC)c3)nc3nc(N)[nH]c(=O)c23)ccc1Oc1ccnc2cc(Cl)ccc12 , give its reported growth.
59.4

For the compound Nc1cc(O)cc(O)c1 , give its reported growth.
96.5

For the compound COc1ccccc1S(=O)(=O)Nc1ccc2c(c1)CN(C)C(=O)N2 , give its reported growth.
54.1

For the compound COc1cc(-c2nc3cc(Cl)c(Cl)cc3[nH]2)ccc1OCC(=O)NN , give its reported growth.
93

For the compound Cc1cnc(C=O)c2cccc([N+](=O)[O-])c12 , give its reported growth.
99.2

For the compound COc1ccc(-c2[nH]ncc2/C=C/c2cc(C(F)(F)F)[nH]c(=O)n2)cc1 , give its reported growth.
91

For the compound COc1ccccc1NC1=C(N2CCCCC2)C(=O)c2ccccc2C1=O , give its reported growth.
90.2

For the compound O=C(Nc1ccc(Oc2ccc(Nc3nc4ccccc4s3)cc2)cc1)Nc1ccc(Cl)c(Cl)c1 , give its reported growth.
27.1

For the compound CCOC(=S)Sc1ccc([N+](=O)[O-])cc1[N+](=O)[O-] , give its reported growth.
111

For the compound Cc1nc2scc(-c3ccc(Cl)cc3)n2c(=O)c1CCN1CCOCC1 , give its reported growth.
94.6

For the compound CCOC(=O)c1ccc(NC(=O)Nc2nncs2)cc1 , give its reported growth.
58.3

For the compound CCOc1nc(-c2ccccc2)cc2c(O)c(C(=O)NCCCO)[nH]c(=O)c12 , give its reported growth.
96.9

For the compound O=C1/C(=C/c2cccs2)CCC/C1=C\c1cccs1 , give its reported growth.
105

For the compound Nc1ccc2c(c1)Cc1cc(N)c(Cl)cc1-2 , give its reported growth.
92.9

For the compound Cc1noc(C)c1-c1ccc2nc(NC(=O)[C@H]3CCN(C#N)C3)cn2c1 , give its reported growth.
108

For the compound O=c1oc2c3ccc4cnccc4c3[nH]c2c2ccccc12 , give its reported growth.
14.6

For the compound CCCCn1c(=O)[nH]c(N)c(C(c2ccc(Cl)cc2)c2c(N)[nH]c(=O)n(CCCC)c2=O)c1=O , give its reported growth.
47.9

For the compound c1ccc(CC(NCCNC(Cc2ccccc2)c2ccccc2)c2ccccc2)cc1 (stereo not drawn) , give its reported growth.
44.4

For the compound CCOC(=O)C(CCC1=NC(C)(C)CC(C)O1)C(=O)OCC (stereo not drawn) , give its reported growth.
106

For the compound N#C/C(=C\N1C(=O)/C(=C/c2cccc([N+](=O)[O-])c2)SC1=S)c1nc2ccccc2s1 , give its reported growth.
88.8

For the compound COC1OC2COC(c3ccccc3)OC2C(=O)C1NC(=O)c1ccccc1 (stereo not drawn) , give its reported growth.
94.9

For the compound Oc1ccc(Cn2cc3c(c2-c2ccccc2)CCc2cnoc2-3)cc1 , give its reported growth.
99.2

For the compound C(=C\c1nc2ccccc2s1)/c1ccc(N2CCOCC2)s1 , give its reported growth.
95.2

For the compound O=C(Nc1ccc(CN2CCOCC2)cc1)c1ccc(-c2cc(Cl)ccc2Cl)o1 , give its reported growth.
54.7

For the compound COc1ccc(CCc2nc3cc(-c4c(C)noc4C)ccc3n2CCN2CCOCC2)cc1 , give its reported growth.
48.9

For the compound COc1ccc(C(=O)/C=C/c2cc(-c3ccc(OC)c(OC)c3)n[nH]2)cc1OC , give its reported growth.
2.04

For the compound Cc1cc(C)c2nc(C)c(C)[n+]([O-])c2c1 , give its reported growth.
109

For the compound CCc1c(C(=O)NCc2c(O)ccc3cccc(O)c23)[nH]c(C)c1C(C)=O , give its reported growth.
53

For the compound COc1cc(OC)cc(N2CCN(C(=O)Nc3nc4cc(F)ccc4nc3OC)CC2)c1 , give its reported growth.
28.7

For the compound CNC(=O)c1cc(Oc2ccc(NC(=O)Nc3ccc(Cl)c(C(C)(C)C)c3)c(F)c2)ccn1 , give its reported growth.
60

For the compound COc1c(-c2c3sc(=O)[nH]c3nc3c2c(=O)[nH]n3C(C)C)cc2c(c1OC)OCO2 , give its reported growth.
98.7

For the compound CCCCN(CCCC)c1ccc(C(=NC(C)CCCN(CC)CC)c2ccc(N(C)C)cc2)cc1 (stereo not drawn) , give its reported growth.
-23

For the compound CCOC(=O)CSC(=S)SCC(=O)OCC , give its reported growth.
105

For the compound CC(=O)Nc1ccc(Sc2ccc(NC(C)=O)cc2)cc1 , give its reported growth.
106

For the compound C=CCc1cc(Nc2c3ccc(Cl)cc3nc3ccc(OC)cc23)cc(CN(CC)CC)c1O , give its reported growth.
20.6

For the compound Nc1nc2c(nnn2C2CC(O)C(CO)O2)c(=O)[nH]1 (stereo not drawn) , give its reported growth.
94.3

For the compound C=CCNCCCN1C(=O)c2ccc3c4c(ccc(c24)C1=O)C(=O)N(CCCNCC=C)C3=O , give its reported growth.
-91.2

For the compound Fc1ccc2[nH]c3c(NCCCN4CCOCC4)ncnc3c2c1 , give its reported growth.
91.7
